- target.entity: soluble guanylate cyclase (sGC) (Homo sapiens, UniProt Q02108+Q02153)
- Construct: endogenously expressing soluble guanylate cyclase (sGC); endogenous in cells; host or cells: HEK293
- Sequence (Q02153 whole entry): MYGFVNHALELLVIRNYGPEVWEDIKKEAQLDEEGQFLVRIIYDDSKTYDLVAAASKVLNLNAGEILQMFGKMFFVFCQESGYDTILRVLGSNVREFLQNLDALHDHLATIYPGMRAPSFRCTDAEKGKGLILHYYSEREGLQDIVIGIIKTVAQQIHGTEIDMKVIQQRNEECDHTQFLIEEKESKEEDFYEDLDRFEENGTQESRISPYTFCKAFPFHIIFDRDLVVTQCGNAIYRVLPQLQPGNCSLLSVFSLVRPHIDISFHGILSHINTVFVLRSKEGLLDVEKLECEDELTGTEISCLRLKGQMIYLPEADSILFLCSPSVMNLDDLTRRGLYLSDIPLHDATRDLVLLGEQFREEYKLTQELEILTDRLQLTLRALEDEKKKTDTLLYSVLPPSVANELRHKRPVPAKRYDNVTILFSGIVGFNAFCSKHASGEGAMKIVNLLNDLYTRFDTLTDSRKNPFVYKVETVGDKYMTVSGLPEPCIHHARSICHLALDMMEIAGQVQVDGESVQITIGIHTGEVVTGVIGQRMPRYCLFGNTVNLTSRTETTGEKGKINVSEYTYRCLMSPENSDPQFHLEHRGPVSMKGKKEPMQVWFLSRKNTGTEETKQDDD
- Sequence (Q02108 whole entry): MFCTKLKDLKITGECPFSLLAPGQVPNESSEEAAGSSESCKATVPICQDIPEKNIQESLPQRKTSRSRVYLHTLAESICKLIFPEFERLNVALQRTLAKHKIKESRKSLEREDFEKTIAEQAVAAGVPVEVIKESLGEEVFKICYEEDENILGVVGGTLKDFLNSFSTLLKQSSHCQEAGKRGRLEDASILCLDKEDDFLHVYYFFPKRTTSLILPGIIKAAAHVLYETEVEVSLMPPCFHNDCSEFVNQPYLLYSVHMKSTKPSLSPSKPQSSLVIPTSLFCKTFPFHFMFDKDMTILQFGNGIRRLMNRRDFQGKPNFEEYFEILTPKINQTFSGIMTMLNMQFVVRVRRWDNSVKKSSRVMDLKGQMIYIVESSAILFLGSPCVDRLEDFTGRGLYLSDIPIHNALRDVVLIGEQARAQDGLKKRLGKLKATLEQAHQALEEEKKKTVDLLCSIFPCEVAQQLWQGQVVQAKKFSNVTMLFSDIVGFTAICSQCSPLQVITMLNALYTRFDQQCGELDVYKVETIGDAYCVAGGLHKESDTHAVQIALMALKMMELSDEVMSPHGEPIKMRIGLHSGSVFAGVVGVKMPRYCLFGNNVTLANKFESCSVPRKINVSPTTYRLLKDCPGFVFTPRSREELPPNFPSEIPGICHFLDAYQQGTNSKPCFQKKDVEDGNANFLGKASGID
- experiment: sGC-HEK-cGMP assay (run with SNP incubation)
- Assay type: cell-based
- condition: Table 3A; top of concentration-response curve not fitted to 100%; 10 μM SNP; 100% = 30 μM BAY 41-2272 with 10 μM SNP; read-out: HEK assay Emax-unconstrained (Percent)
Emax for assorted compounds

Guide cases for Emax, answers given:
compound	val
Nc1nc(-c2cc(-c3ccon3)n(Cc3ccccc3F)n2)ncc1NC(=O)C1(c2cccc(F)c2)CC1 [Compound 11]	60 to 80%
Nc1ccnc(-c2cc(-c3ccon3)n(Cc3cccc(F)c3F)n2)n1 [Compound 37]	80 to 100%
COc1nc(-c2cc(-c3ccon3)n(Cc3ccccc3F)n2)ncc1F [Compound 28]	60 to 80%

Task item: Field: Emax (soluble guanylate cyclase (sGC) (Homo sapiens, UniProt Q02108+Q02153)). Entry: Oc1nc(-c2cc(-c3ccon3)n(Cc3ccccc3F)n2)ncc1-c1ccsc1 [Compound 45]
Reply: 10 to 20%

Task item: Field: Emax (soluble guanylate cyclase (sGC) (Homo sapiens, UniProt Q02108+Q02153)). Entry: O=c1[nH]c(-c2cc(-c3ccon3)n(Cc3c(F)ccc(F)c3F)n2)ncc1F [Compound 19]
Reply: 20 to 40%

Task item: Field: Emax (soluble guanylate cyclase (sGC) (Homo sapiens, UniProt Q02108+Q02153)). Entry: Fc1ccccc1Cn1nc(-c2ncccn2)c(F)c1-c1ccon1 [Compound 34]
Reply: 20 to 40%

Task item: Field: Emax (soluble guanylate cyclase (sGC) (Homo sapiens, UniProt Q02108+Q02153)). Entry: Fc1ccccc1Cn1nc(-c2ncc(Br)c(Cl)n2)cc1-c1ccon1 [Compound 52]
Reply: 40 to 60%

Task item: Field: Emax (soluble guanylate cyclase (sGC) (Homo sapiens, UniProt Q02108+Q02153)). Entry: O=c1[nH]c(-c2nn(Cc3ccccc3F)c(-c3ccon3)c2F)ncc1F [Compound 3]
Reply: ≥ 120%
